B1: Segment polarity protein dishevelled homolog DVL-3, residues 2 to 81; numbered along this chain, Q92997 (parent)
chain: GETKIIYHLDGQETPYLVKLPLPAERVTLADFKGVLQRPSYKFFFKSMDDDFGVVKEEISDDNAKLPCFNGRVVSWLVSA

Variants of: B1
method.notes: abundance fitness (aPCA) (normalised: wild type 0, dead -1); higher = more abundant; growth selection in yeast, the domain comes from the species named
condition.context: Homo sapiens
Label criterion met when abundance fitness is at or above -0.6; anything below gets criterion not met.

Evaluate G53Q : abundance fitness at minimum -0.6? criterion met

Evaluate F44W : abundance fitness at minimum -0.6? criterion met

Evaluate L22R : abundance fitness at minimum -0.6? criterion not met

Evaluate K56L : abundance fitness at minimum -0.6? criterion met

Evaluate S60C : abundance fitness at minimum -0.6? criterion met

Evaluate E57D : abundance fitness at minimum -0.6? criterion not met

Evaluate F52T : abundance fitness at minimum -0.6? criterion met
